This collection of values is drawn from ChEMBL document CHEMBL3988442.

target: AMP-activated protein kinase, AMPK (Homo sapiens) (UniProt P54646+O43741+P54619+Q9UGJ0+Q9Y478+Q13131+Q9UGI9); assay: AMP-dependent Kinase enzyme assay. An in vitro enzyme assay that detects ADP turnover that is directly proportional to AMPK activity. This uses naive AMPK that is activated during the assay with MK-8722; type: functional; design: scale not given: direction of the effect not stated beside the values; details: 30 µM
Assignment: determine reported Percent Effect for the given compounds.
Please don't drop the unit; write it after the number.

What the record says about Cc1cc(C)c(NC(=O)Nc2cnn(CC(O)CN(C)C)c2)c(C)c1 (stereo unspecified) : Percent Effect is 0.923%

What the record says about "O=S(=O)(NCC1(c2cccs2)CCOCC1)c1cccnc1" : Percent Effect is -2.3%

What the record says about CCn1ncnc1C1CC(=O)NCc2nc(N3CCOCC3)sc21 (stereo unspecified) : Percent Effect is -10.6%

What the record says about O=C(NCCCn1cccn1)C1COCC(=O)N1Cc1ccccc1 (stereo unspecified) : Percent Effect is -3.92%

What the record says about "COC(=O)C1CCN(C(=O)Cn2nc(C)nc2-c2ccccc2)CC1" : Percent Effect is -7.76%

What the record says about CCC(C#N)NC(=O)c1sccc1OC (stereo unspecified) : Percent Effect is 2.49%

====

test system: Trypanosoma cruzi; experiment: Trypanosoma cruzi phosphomannomutase and mannose-1-phosphate guanylyltransferase assay; format: functional; design: scale not given: direction of the effect not stated beside the values; details: 10 µM
value-type: Percent Effect (%)
Just the number please, in %, no unit attached.

What the record says about CCCC(=O)N1CCC2(CC1)CC(NC(C)=O)c1ccccc1O2 (stereo unspecified) : Percent Effect is -4.69

What the record says about CNc1nc(C2CCCN2C(C)=O)nc2c1CCN(CC1CC1)C2 (stereo unspecified) : Percent Effect is -0.197

What the record says about "CCNC(=O)[C@@H]1C[C@H](NC(=O)Cc2ccsc2)CN1Cc1ccc(C)o1" : Percent Effect is 9.02

What the record says about "COC(=O)c1cccn1C1CCN(CC(=O)NC2CCCCC2)CC1" : Percent Effect is -1.31

What the record says about Cc1cnn(C2CCCN(C(=O)c3sccc3-n3cnnn3)C2)c1 (stereo unspecified) : Percent Effect is -5.54

What the record says about Cc1ccc(Oc2ccc(NC(=O)NCC3CCOC3)cn2)cc1C (stereo unspecified) : Percent Effect is 7.98

What the record says about "CC(=O)NCCC(=O)NCc1cccnc1-n1cnc2ccccc21" : Percent Effect is 6.69

What the record says about CCCc1cc(CNC(=O)C2CCOc3ccccc3C2)on1 (stereo unspecified) : Percent Effect is 2.62

What the record says about "COc1ccc(CC(=O)N2CCc3nnc(N(C)C)cc3C2)cc1F" : Percent Effect is -1.97

What the record says about CC(C)c1nc(C2CCCN(C(=O)c3ccnc(N(C)C)c3)C2)no1 (stereo unspecified) : Percent Effect is -3.62

What the record says about CC(NC(=O)CN(C)S(C)(=O)=O)c1nnc2n1CCCCC2 (stereo unspecified) : Percent Effect is -4.48

====

Assignment: determine reported Percent Effect for the given compounds.
molecular target: Sialic acid-binding Ig-like lectin 9 (Homo sapiens) (UniProt Q9Y336); test: Hs-Siglec9 ALPHAscreen SOP 20170721; set-up: scale not given: direction of the effect not stated beside the values; conditions: 10 µM
Sequence (Q9Y336 whole entry): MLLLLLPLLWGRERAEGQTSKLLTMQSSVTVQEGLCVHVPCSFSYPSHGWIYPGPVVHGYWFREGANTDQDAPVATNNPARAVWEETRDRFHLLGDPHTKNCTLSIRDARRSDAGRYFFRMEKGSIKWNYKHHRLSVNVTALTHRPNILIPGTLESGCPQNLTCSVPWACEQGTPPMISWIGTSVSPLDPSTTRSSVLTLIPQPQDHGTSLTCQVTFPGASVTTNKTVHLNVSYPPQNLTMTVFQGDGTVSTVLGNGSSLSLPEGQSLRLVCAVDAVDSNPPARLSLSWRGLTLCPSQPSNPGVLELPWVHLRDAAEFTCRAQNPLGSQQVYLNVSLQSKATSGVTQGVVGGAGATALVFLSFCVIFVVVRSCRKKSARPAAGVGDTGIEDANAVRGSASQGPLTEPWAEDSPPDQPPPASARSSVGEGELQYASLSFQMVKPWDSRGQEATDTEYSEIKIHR
Just the number please, in %, no unit attached.

What the record says about "Cc1[nH]c2ccccc2c1-c1ccnc(NC[C@H](O)CO)n1" : Percent Effect is -5

What the record says about CN(C)CC1CN(Cc2coc(-c3cccs3)n2)CCO1 (stereo unspecified) : Percent Effect is -3.06

What the record says about Cc1cn[nH]c1C1CCCCN1C(=O)CCN1CCCCCC1 (stereo unspecified) : Percent Effect is -1.68

What the record says about "Cc1cccc(CN2C(=O)CCC23CCN(c2ncc(F)cn2)CC3)n1" : Percent Effect is -3.32

What the record says about Cc1cc(C(=O)NC2CCc3nc(C)cn3C2)[nH]n1 (stereo unspecified) : Percent Effect is 4.26

What the record says about CCn1ccnc1CN1CCN(CC(O)c2ccccc2)CC1 (stereo unspecified) : Percent Effect is 2.88

====

Assignment: determine reported Percent Effect for the given compounds.
target: AMP-activated protein kinase, AMPK (Homo sapiens) (UniProt P54646+O43741+P54619+Q9UGJ0+Q9Y478+Q13131+Q9UGI9); assay: AMP-dependent Kinase enzyme assay. An in vitro enzyme assay that detects ADP turnover that is directly proportional to AMPK activity. This uses naive AMPK that is activated during the assay with MK-8722; assay type: functional; design: scale not given: direction of the effect not stated beside the values; details: 30 µM
Just the number please, in %, no unit attached.

What the record says about "CC(C)CNC(=O)Nc1cccc(OCC#N)c1" : Percent Effect is 2

What the record says about "CC(=O)N[C@H]1CCO[C@@H](c2cccc(NC(=O)C(C)(C)C)c2)C1" : Percent Effect is 7.76

What the record says about "Cc1cccc(C)c1Nc1noc2c1CN(C(=O)c1cn(C)cn1)CC2" : Percent Effect is 17.2

What the record says about "Cc1csc(CCNC(=O)N2CCC(C(N)=O)CC2)n1" : Percent Effect is -10.8

What the record says about "CCOC(=O)C1(NCC(=O)Nc2cc(C)ccc2OC)CCCC1" : Percent Effect is 0.781

What the record says about "COc1ccc(C(=O)N2C[C@@H](O)[C@H](NCc3cnc(C)cn3)C2)cc1" : Percent Effect is -12.3

What the record says about "CCOC(=O)N1CCN(C(=O)Cn2ccc3ncccc3c2=O)CC1" : Percent Effect is -0.626

What the record says about "CC(C)N(Cc1ccccn1)C(=O)CN(C)C(=O)c1cccs1" : Percent Effect is 10.8

What the record says about "COC[C@]1(O)CCN(c2cc(C3CC3)ncn2)CC1(C)C" : Percent Effect is 10.6

What the record says about CCC(=O)Nc1cccc(OCC(=O)N(C)CCCC2CCCO2)c1 (configuration not stated) : Percent Effect is 11.8

What the record says about Clc1ccc(N2CCC(OCC3CCCCO3)CC2)nc1 (configuration not stated) : Percent Effect is 3.4

What the record says about "Cn1nnnc1SCC1(O)CCCCC1" : Percent Effect is 32.1

====

molecular target: Tyrosyl-tRNA synthetase, putative (Trypanosoma cruzi (strain CL Brener)) (UniProt Q4DSP6); experiment: Trypanosoma cruzi tyrosyl tRNA synthetase (TcYRS) SOP; type: functional; set-up: scale not given: direction of the effect not stated beside the values; conditions: 30 µM
Sequence (Q4DSP6 as listed by the source): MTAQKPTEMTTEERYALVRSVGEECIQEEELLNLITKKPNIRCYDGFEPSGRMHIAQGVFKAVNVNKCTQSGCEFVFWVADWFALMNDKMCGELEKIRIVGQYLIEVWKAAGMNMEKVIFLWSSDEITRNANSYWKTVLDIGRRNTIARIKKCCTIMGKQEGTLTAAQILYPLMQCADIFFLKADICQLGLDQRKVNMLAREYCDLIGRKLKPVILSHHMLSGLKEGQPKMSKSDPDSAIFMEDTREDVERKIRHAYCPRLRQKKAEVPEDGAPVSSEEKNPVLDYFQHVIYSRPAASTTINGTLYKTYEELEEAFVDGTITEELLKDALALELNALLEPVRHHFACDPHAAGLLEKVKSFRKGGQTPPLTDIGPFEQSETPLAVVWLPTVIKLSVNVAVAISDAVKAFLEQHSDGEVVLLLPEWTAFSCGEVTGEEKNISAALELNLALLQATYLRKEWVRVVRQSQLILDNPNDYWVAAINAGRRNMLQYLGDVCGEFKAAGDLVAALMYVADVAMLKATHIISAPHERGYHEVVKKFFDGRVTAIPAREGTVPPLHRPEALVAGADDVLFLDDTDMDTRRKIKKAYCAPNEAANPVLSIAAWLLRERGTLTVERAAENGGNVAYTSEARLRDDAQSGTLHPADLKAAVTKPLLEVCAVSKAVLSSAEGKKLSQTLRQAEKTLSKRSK
value-type: Percent Effect (%)
Just the number please, in %, no unit attached.

What the record says about CN(Cc1noc(C2CC2)n1)C1CCN(Cc2ccncc2)C1 (centres undefined) : Percent Effect is 22.9

What the record says about CS(=O)(=O)N1CCC(c2nnc3ccc(C(=O)N4CCCC4)cn23)C1 (centres undefined) : Percent Effect is 5.13

What the record says about "Cc1[nH]c2ccccc2c1-c1ccnc(NC[C@H](O)CO)n1" : Percent Effect is -7.69

What the record says about Cc1n[nH]c(=O)c2c(NC(=O)CN3CCOC(C)C3)oc(C)c12 (centres undefined) : Percent Effect is 18.1

What the record says about "CCc1ccc(O)c(C(=O)NC2CCN(C(=O)OC)CC2)c1" : Percent Effect is 13.2

What the record says about "O=C1N(CC2CC2)CCC12CCN(c1ncccn1)CC2" : Percent Effect is 10

What the record says about CC(O)CN1CCC(CNCc2ccccc2Br)CC1 (centres undefined) : Percent Effect is 20.5

What the record says about Cc1cc(C(=O)NCC(C)N2CCc3ccccc32)no1 (centres undefined) : Percent Effect is 11.8

What the record says about Cc1cnn(CC2CCCN2C(=O)c2cc3c(F)cccc3[nH]2)c1 (centres undefined) : Percent Effect is 11.8

What the record says about CCc1cc(O)nc(C2CCCN2C(=O)c2cc(C)no2)n1 (centres undefined) : Percent Effect is 5

What the record says about "Cc1cc2c(cc1C(=O)N1CC[C@H](CO)[C@@H](O)C1)OCCO2" : Percent Effect is 12.2

What the record says about CCc1nc(C2CCCN2CCn2cncn2)no1 (centres undefined) : Percent Effect is 7.06

What the record says about CCOC1CCCN(C(=O)c2sccc2-n2cnnn2)C1 (centres undefined) : Percent Effect is 22.9

What the record says about "CCCn1ncc2c(C(=O)Nc3cnn(CC)c3C)cc(C3CC3)nc21" : Percent Effect is 12.5

What the record says about CCn1cc(CN2CCCC(c3[nH]ncc3S(C)(=O)=O)C2)cn1 (centres undefined) : Percent Effect is 15

What the record says about "CC(=O)NCCC(=O)NCc1cccnc1-n1cnc2ccccc21" : Percent Effect is 2.44

What the record says about Cc1cc(C)n(CC2CCCCN2C(=O)c2ccc3c(c2)OCO3)n1 (centres undefined) : Percent Effect is 10.3

What the record says about Cn1cc(CN2CCCC3(CCCN3S(C)(=O)=O)C2)cn1 (centres undefined) : Percent Effect is 10.3

What the record says about CCc1[nH]ncc1C(=O)N1CCCC(n2ccnc2C(C)C)C1 (centres undefined) : Percent Effect is 10.3

What the record says about "Cc1noc(C)c1CC(=O)OCC(=O)N1CCc2sccc2C1" : Percent Effect is 23.1

What the record says about "Cc1cccc(CN2C[C@@H]3COC[C@]3(CNC(=O)N3CCCC3)C2)n1" : Percent Effect is 5.13

What the record says about "Cc1noc(C)c1CN(C)C(=O)NC1CCN(c2ncccn2)CC1" : Percent Effect is 20.5

What the record says about "COc1ccc(CN2CCC3(CC2)CCN(CC2CC2)C3=O)cc1" : Percent Effect is 2.5

What the record says about COc1cccc(-n2nnc(C(=O)N3CCN(C)CC3C)c2C)c1 (centres undefined) : Percent Effect is 22.9
